% Competition overview
measured-on: T1, mFc tagged human SIRPα v1 ECD recombinant protein (human, UniProt P78324 31-373)
T1 construct: extracellular domain; not shown: mouse Fc tag
assay-explanation: competitive ELISA; row antibody in excess in solution, coated mAb 025c
Give just the number in %; leave the unit off.

So what's the measured % Competition for this one? Anti-SIRPα antibody C42 (antibody, human IgG4, V domains shown, Mouse variable regions; also called 042c) VH: QIQLVQSGPELKKPGETVKISCRASGYTFTTYGMSWVKQAPGKGLRWMGWINTYSGVSTCADDFKGRFAFSLETSATTAYLQIHNLTNEDTATYFCARDPHSYGNSPAWFPYWGQGTLVTVSA VL: DIVMTQSQKFMSTTIRDRVSITCKASQNVGISVAWYQQKSGQSPKLLIYSASNRYTGVPDRFTGSGSGTDFTLTISNMQSEDLADYFCQQYSSYPLTFGSGTKLAIK 8.9

So what's the measured % Competition for this one? Reference anti-SIRPα antibody hu1H9G4 (antibody, human IgG4, V domains shown) VH: QVQLVQSGAEVKKPGASVKVSCKASGYTFTSYWITWVKQAPGQGLEWIGDIYPGSGSTNHIEKFKSKATLTVDTSISTAYMELSRLRSDDTAVYYCATGYGSSYGYFDYWGQGTLVTVSS VL: DIQMTQSPSSLSASVGDRVTITCRASENIYSYLAWYQQKPGKAPKLLIYTAKTLAEGVPSRFSGSGSGTDFTLTISSLQPEDFATYYCQHQYGPPFTFGQGTKLELK 14.5

So what's the measured % Competition for this one? Anti-SIRPα antibody C73 (antibody, human IgG4, V domains shown, Mouse variable regions; also called 073c; 073C) VH: QIQLVQSGPELKKPGETVKISCKASGYTFTTYGMSWVKQAPGKGLKWMVWINTYSGVPTYADDFKGRFAFSLETSASTSYLQINNLKNEDTATYFCARDPHYYGSSPAWFVYWGQGTLVTVSA VL: DIVMTQSQKFMSTTIGDRVSITCEASQIVGIAVAWYQQKPGQSPKLLIYSASNRYTGVPDRFTGSGSGTDFTLTISNMQSEDLANYFCQQYSAYPFTFGSGTKLEVK 9.1

So what's the measured % Competition for this one? Anti-SIRPα antibody C25 (antibody, V domains shown, Mouse variable regions; also called 025c; 025) VH: EVQLQQSGAELVKPGASVKLSCTASGFNIKDYYMHWVKQRTEQGLEWIGRIDPEDGETKYAPKFQGKATITADTSSNTAYLQLSSLTSEDTAVYYCDRGLAYWGQGTLVTVSA VL: QIVLTQSPAIMSASPGEKVTLTCSASSSVSSSYLYWYQQKPGSSPKLWIYSTSNLASGVPARFSGSGSGTSYSLTISSMEAEDAASYFCHQWSSYPYTFGGGTKLEIK 93.5
